- TARGET OR SYSTEM: recombinant WT T. cruzi proteasome (caspase-like activity, β1) (Trypanosoma cruzi, UniProt V5BHX1)
- ASSAY NOTES: Caspase-like activity assay (Proteasome-Glo), recombinant wild-type T. cruzi proteasome
Exercise: state measured IC50 for each of the compounds provided.

**Q:** Sample "CNC(=O)c1cc(NC(=O)c2ccc(=O)n(Cc3ccc(OC)cc3)n2)ccc1F" — what was its IC50?
**A:** > 30.2 µM

**Q:** Sample "O=C(Nc1ccc(F)c(-c2cn3nc(N4CCOCC4)cnc3n2)c1)N1CCCC1" — what was its IC50?
**A:** > 30.2 µM

**Q:** Sample "O=C(Nc1ccc(F)c(C(=O)NC2CC2)c1)c1ccc(COc2ccccc2)o1" — what was its IC50?
**A:** > 30.2 µM

**Q:** Sample CC(C)C[C@H](NC(=O)CNC(=O)c1cc(Cl)ccc1Cl)B(O)O [Ixazomib, reference compound] — what was its IC50?
**A:** 0.055 µM

###

- TARGET OR SYSTEM: recombinant Δβ1Δβ2 mutant T. cruzi proteasome (chymotrypsin-like activity) (Trypanosoma cruzi, UniProt V5BU39+V5C017)
- ASSAY NOTES: biochemical
Residues, ends and D or L forms follow the SMILES beside them. *: point of attachment. Cbz = O=C(OCc1ccccc1)*
Exercise: state measured IC50 for each of the compounds provided.
Please format your answer as a value with the unit trailing.

**Q:** Sample CC(C)C[C@@H](C=O)NC(=O)[C@H](CC(C)C)NC(=O)[C@H](CC(C)C)NC(=O)OCc1ccccc1 [MG132, reference compound] (Cbz-Leu-Leu-Leu-aldehyde) — what was its IC50?
**A:** 91.2 nM

**Q:** Sample CNC(=O)c1cc(NC(=O)c2ccc(=O)n(Cc3ccc(OC)cc3)n2)ccc1F [DDD02097487] — what was its IC50?
**A:** 155 nM

**Q:** Sample O=C(Nc1ccc(F)c(C(=O)NC2CC2)c1)c1ccc(COc2ccccc2)o1 [DDD02091966] — what was its IC50?
**A:** 45.7 nM

**Q:** Sample CC(C)C[C@H](NC(=O)CNC(=O)c1cc(Cl)ccc1Cl)B(O)O [Ixazomib, reference compound] — what was its IC50?
**A:** 22.9 nM

**Q:** Sample O=C(Nc1ccc(F)c(-c2cn3nc(-c4ccccc4)cnc3n2)c1)N1CCCC1 [DDD01012248] — what was its IC50?
**A:** 41.7 nM

**Q:** Sample O=C(Nc1ccc(F)c(-c2cn3nc(N4CCOCC4)cnc3n2)c1)N1CCCC1 [DDD01012247] — what was its IC50?
**A:** 19.5 nM

###

- TARGET OR SYSTEM: recombinant WT T. cruzi proteasome (chymotrypsin-like activity, β5) (Trypanosoma cruzi, UniProt V5BU39+V5C017)
- ASSAY NOTES: biochemical
- Format: biochemical
- DETAILS: mean ± SD, N = 3 (N = 2 for DDD02091966); (a) mid-point plateau from biphasic curve fits
Non-standard residues stand in square brackets, D forms with d. Residues, ends and D or L forms follow the SMILES beside them. *: point of attachment. Nva = CCC[C@H](N)C(=O)O; Cbz = O=C(OCc1ccccc1)*
Mark fulfilled for reported maximum % inhibition plateau, Chymotrypsin Assay, Wild-type of 70% or greater; mark not fulfilled for anything smaller.

**Q:** Please check the record CC[C@H](C)[C@H](NC(=O)[C@H]([C@@H](C)CC)N(C)C(C)=O)C(=O)N[C@H](C(=O)N[C@@H](CC(C)C)C(=O)[C@@]1(C)CO1)[C@@H](C)O [Epoxomicin, reference compound] and state if its maximum % inhibition plateau, Chymotrypsin Assay, Wild-type is at or above 70%.
**A:** fulfilled

**Q:** Please check the record "CNC(=O)c1cc(NC(=O)c2ccc(=O)n(Cc3ccc(OC)cc3)n2)ccc1F" and state if its maximum % inhibition plateau, Chymotrypsin Assay, Wild-type is at or above 70%.
**A:** not fulfilled

**Q:** Please check the record "O=C(Nc1ccc(F)c(-c2cn3nc(-c4ccccc4)cnc3n2)c1)N1CCCC1" and state if its maximum % inhibition plateau, Chymotrypsin Assay, Wild-type is at or above 70%.
**A:** not fulfilled

**Q:** Please check the record CCC[C@@H](C=O)NC(=O)[C@H](CC(C)C)NC(=O)[C@H](CC(C)C)NC(=O)OCc1ccccc1 [MG115, reference compound] (Cbz-Leu-Leu-[Nva]-aldehyde) and state if its maximum % inhibition plateau, Chymotrypsin Assay, Wild-type is at or above 70%.
**A:** fulfilled

**Q:** Please check the record "O=C(Nc1ccc(F)c(C(=O)NC2CC2)c1)c1ccc(COc2ccccc2)o1" and state if its maximum % inhibition plateau, Chymotrypsin Assay, Wild-type is at or above 70%.
**A:** not fulfilled

###

Exercise: state measured pIC50, Trypsin Assay, β4^R mutant for each of the molecules provided.
- TARGET OR SYSTEM: recombinant β4^R mutant T. cruzi proteasome (trypsin-like activity) (Trypanosoma cruzi)
- Format: biochemical
- DETAILS: mean ± SD, N = 3
Non-standard residues stand in square brackets, D forms with d. Residues, ends and D or L forms follow the SMILES beside them. *: point of attachment. Nva = CCC[C@H](N)C(=O)O; Cbz = O=C(OCc1ccccc1)*
Would you mind answering with just the numeric figure?

**Q:** Sample CC(C)C[C@H](NC(=O)CNC(=O)c1cc(Cl)ccc1Cl)B(O)O [Ixazomib, reference compound] — what was its pIC50, Trypsin Assay, β4^R mutant?
**A:** 5.53

**Q:** Sample CCC[C@@H](C=O)NC(=O)[C@H](CC(C)C)NC(=O)[C@H](CC(C)C)NC(=O)OCc1ccccc1 [MG115, reference compound] (Cbz-Leu-Leu-[Nva]-aldehyde) — what was its pIC50, Trypsin Assay, β4^R mutant?
**A:** 5.24

**Q:** Sample CC[C@H](C)[C@H](NC(=O)[C@H]([C@@H](C)CC)N(C)C(C)=O)C(=O)N[C@H](C(=O)N[C@@H](CC(C)C)C(=O)[C@@]1(C)CO1)[C@@H](C)O [Epoxomicin, reference compound] — what was its pIC50, Trypsin Assay, β4^R mutant?
**A:** 6.11

**Q:** Sample CC(C)C[C@@H](C=O)NC(=O)[C@H](CC(C)C)NC(=O)[C@H](CC(C)C)NC(=O)OCc1ccccc1 [MG132, reference compound] (Cbz-Leu-Leu-Leu-aldehyde) — what was its pIC50, Trypsin Assay, β4^R mutant?
**A:** 5.21

###

Exercise: state measured pIC50 for each of the molecules provided.
- TARGET OR SYSTEM: recombinant WT T. cruzi proteasome (caspase-like activity, β1) (Trypanosoma cruzi)
- ASSAY NOTES: Caspase-like activity assay (Proteasome-Glo), recombinant wild-type T. cruzi proteasome
Residues, ends and D or L forms follow the SMILES beside them. *: point of attachment. Cbz = O=C(OCc1ccccc1)*
Units for pIC50: none; it is -log10 of a concentration expressed in mol/L.

**Q:** // map "CC(C)C[C@H](NC(=O)[C@H](Cc1ccccc1)NC(=O)c1cnccn1)B(O)O" to recorded pIC50 (system: recombinant WT T. cruzi proteasome (caspase-like activity, β1) (Trypanosoma cruzi))
**A:** 7.14

**Q:** // map CC(C)C[C@@H](C=O)NC(=O)[C@H](CC(C)C)NC(=O)[C@H](CC(C)C)NC(=O)OCc1ccccc1 [MG132, reference compound] (Cbz-Leu-Leu-Leu-aldehyde) to recorded pIC50 (system: recombinant WT T. cruzi proteasome (caspase-like activity, β1) (Trypanosoma cruzi))
**A:** 5.48

###

Exercise: state measured IC50 for each of the molecules provided.
- TARGET OR SYSTEM: native T. cruzi proteasome (trypsin-like activity, β2) (Trypanosoma cruzi, UniProt V5BCU3)
- ASSAY NOTES: Trypsin-like activity assay (Proteasome-Glo), native T. cruzi proteasome
- Format: biochemical
- DETAILS: mean ± SD, N = 3; read-out: pIC50, Trypsin Assay, Native (converted)

**Q:** // map CC(C)C[C@H](NC(=O)CNC(=O)c1cc(Cl)ccc1Cl)B(O)O [Ixazomib, reference compound] to recorded IC50 (system: native T. cruzi proteasome (trypsin-like activity, β2) (Trypanosoma cruzi, UniProt V5BCU3))
**A:** 8.71 µM

**Q:** // map "CNC(=O)c1cc(NC(=O)c2ccc(=O)n(Cc3ccc(OC)cc3)n2)ccc1F" to recorded IC50 (system: native T. cruzi proteasome (trypsin-like activity, β2) (Trypanosoma cruzi, UniProt V5BCU3))
**A:** > 30.2 µM

**Q:** // map "O=C(Nc1ccc(F)c(C(=O)NC2CC2)c1)c1ccc(COc2ccccc2)o1" to recorded IC50 (system: native T. cruzi proteasome (trypsin-like activity, β2) (Trypanosoma cruzi, UniProt V5BCU3))
**A:** > 30.2 µM

**Q:** // map "O=C(Nc1ccc(F)c(-c2cn3nc(N4CCOCC4)cnc3n2)c1)N1CCCC1" to recorded IC50 (system: native T. cruzi proteasome (trypsin-like activity, β2) (Trypanosoma cruzi, UniProt V5BCU3))
**A:** > 30.2 µM
